Documented EC50 across a set of compounds
Test system: CEM cells HIV-1 protection, formazan growth assay
protocol.summary: NCI AIDS Antiviral Assay
Method: The ability of compounds to protect human CEM cells from HIV-1 infection is measured as a screen for new compounds capable of inhibiting the HIV virus. Five concentrations of drug were tested on uninfected and infected cells and cell growth was measured using a soluble formazan assay. […] Compounds that provided at least 50% protection were retested. Compounds that provided at least 50% protection on retest were listed as moderately active. […]

Known EC50 results, listed for orientation:
Cc1ccc2c(c1)-c1c3c(nn1C)-c1ccccc1SC3O2 (stereo unspecified); > 23.4 µM
CCOC(=O)C[C@@H](C)[C@]1(C(=O)OC)CCCC1=O; > 708 µM
O=c1[nH]c(=O)n(C2OC(CO)C(O)C2O)cc1F (stereo unspecified); > 20 µM
O=C1C(=O)c2ccccc2C(O)=C1CCCC1CCC2CCCCC2C1 (stereo unspecified); > 200 µM
O=P(N1CC1)(N1CC1)N1CC2CCC(CC2)C1; > 200 µM

Quick one: EC50 of CC1=CC2OC3CC(OC(=O)/C=C/C=C/C(OCCC4=CC(=O)OC4)C(C)O)C(C)(C2(CO)CC1)C31CO1 (stereo unspecified) ?
> 67.6 µM

Similarly, CCOC(=O)CCC(NC(=O)OCc1ccccc1)C(=O)NC(CCC(=O)OCC)C(=O)NC(CCC(=O)OCC)C(=O)NC(CCC(=O)OCC)C(=O)NC(CCC(=O)OCC)C(=O)OCC (stereo unspecified) ?
> 100 µM

Similarly, `Cc1cnc(SCCN(C)C)nc1-c1ccc(-c2nc(SCCN(C)C)ncc2C)s1` ?
> 13.5 µM

Similarly, COc1ccccc1NC(=O)CC(=O)N1N=C(c2ccccc2)C(N=Nc2ccc(Cl)cc2)C1=O (stereo unspecified) ?
> 74.1 µM

Similarly, `CCOC(=O)C(C)(c1c[nH]c2ccccc12)c1c[nH]c2ccccc12` ?
> 200 µM

Similarly, `COc1cc2oc3ccccc3c(=O)c2cc1CSc1ccccc1N` ?
> 14.5 µM
